Assay: Oral bioavailability in Sprague-Dawley rat at 10 mg/kg measured for 25 hrs by LC-MS/MS analysis
Type: ADME, organism-based
Settings: in vivo
measured.attribute: bioavailability (%)
Numbers only; they are read as %.

Q: State the recorded bioavailability for this entry: Cc1cc(-c2cnn(CCO)c2)c2c(c1)C(O)(C(F)(F)F)c1ccccc1-2 (stereo unspecified)
Ans: 140

* * *

Assay: AUC in Sprague-Dawley rat at 1 mg/kg, iv measured for 25 hrs by LC-MS/MS analysis
Format: ADME, organism-based
Settings: in vivo
measured.attribute: AUC at 25 h
State the value, then name its unit.

Q: State the recorded AUC at 25 h for this entry: Cc1cc(-c2cnn(CCO)c2)c2c(c1)C(O)(C(F)(F)F)c1ccccc1-2 (stereo unspecified)
Ans: 4.1 µM·h

The values you see were collected from ChEMBL document CHEMBL5576073.
